# logP^[a] listing for each entry below
Assay notes: log P by HPLC on reversed phase columns (EEC directive 79/831 Annex V.A8)
Format: physicochemical
Protocol conditions: Table 1, formula (I); HPLC/LC-MS at pH 2.7, 0.1% formic acid in water / acetonitrile, gradient 10% to 95%

Examples from the recorded data:
| Compound | logP^[a] |
| --- | --- |
| CC(C)CC1CCc2c(NC(=O)c3cccnc3C(F)F)cccc21 (racemic) [Example 41] | 3.94^[a] |
| CC1c2cccc(NC(=O)c3ccc(Cl)nc3C(F)F)c2CC1(C)C (stereo not drawn) [Example 64] | 4.04^[a] |
| CC1CC(=CCl)c2cccc(NC(=O)c3cccnc3C(F)F)c21 (stereo not drawn) [Example 98] | 3.71^[a] |
| CC1CC(C)(C)c2ccc(F)c(NC(=O)c3cccnc3C(F)F)c21 (stereo not drawn) [Example 100] | 3.26^[a] |
| CON=C1CCc2c(NC(=O)c3cccnc3C(F)F)cccc21 [Example 5] | 2.15^[a] |

[ask] For the compound shown here, CC1CC(CC(C)(C)C)c2cccc(NC(=O)c3cccnc3C(F)F)c21 (stereo not drawn) [Example 46] , give the reported logP^[a].
[reply] 4.39^[a]

[ask] Repeat with CC1Cc2c(NC(=O)c3cccnc3C(F)F)cccc2C1(C)C (stereo not drawn) [Example 14]
[reply] 3.33^[a]

[ask] Repeat with CC1CC(C)(C)c2cccc(NC(=S)c3cccnc3C(F)F)c21 (racemic) [Example 9]
[reply] 3.74^[a]

[ask] Repeat with CCCCON=C1CC(C)c2c(NC(=O)c3cccnc3C(F)F)cccc21 (racemic) [Example 51]
[reply] 3.18^[a]

###

# logP^[a] listing for each entry below
Assay notes: log P by HPLC on reversed phase columns (EEC directive 79/831 Annex V.A8)
Assay type: physicochemical
Protocol conditions: Table 1, formula (I); HPLC/LC-MS at pH 2.7, 0.1% formic acid in water / acetonitrile, gradient 10% to 95%

Examples from the recorded data:
| Compound | Data value |
| --- | --- |
| CCC1Cc2c(NC(=O)c3cccnc3C(F)F)cccc2C1(C)C (racemic) | 3.78^[a] |
| CC1c2c(cccc2NC(=O)c2ccc(Cl)nc2C(F)F)CC1(C)C (centres unmarked) | 3.96^[a] |
| O=C(Nc1cccc2c1CCC21CC1)c1cccnc1C(F)F | 2.78^[a] |
| Cc1cnc(C(F)F)c(C(=O)Nc2cccc3c2C(C)C(C)(C)C3)c1 (centres unmarked) | 3.59^[a] |

Now examine the next entry.
[ask] For the compound shown here, CCC1(CC)OC(C)c2c(NC(=O)c3cc(C)cnc3C(F)F)cccc21 (centres unmarked) , give the reported logP^[a].
[reply] 3.15^[a]

###

# logP^[a] listing for each entry below
Assay notes: log P by HPLC on reversed phase columns (EEC directive 79/831 Annex V.A8)
Format: physicochemical
Protocol conditions: Table 1, formula (I); HPLC/LC-MS at pH 2.7, 0.1% formic acid in water / acetonitrile, gradient 10% to 95%

| Compound | logP^[a] |
| --- | --- |
| CC1(C)Cc2cccc(NC(=O)c3cccnc3C(F)F)c2C1 | 3.06^[a] |
| CCC1(CC)Cc2c(NC(=O)c3cc(C)cnc3C(F)F)cccc2C1C (stereo not drawn) | 4.39^[a] |
| Cc1cnc(C(F)F)c(C(=O)Nc2cccc3c2C(C(C)C)OC3(C)C)c1 (racemic) | 3.00^[a] |

Now examine the next entry.
[ask] For the compound shown here, CCC1OC(CC)(CC)c2cccc(NC(=O)c3cccnc3C(F)F)c21 (racemic) , give the reported logP^[a].
[reply] 3.23^[a]
